# Lookup of reported melting point keyed by entry

Worked cases, answers included:
                                   molecule         result
0  COc1cccc([C@H]2O[C@H](CC(=O)N3CCN(CC(=O)O)C(=O)C3)C(=O)N(CC(C)(C)C)c3ccc(Cl)cc32)c1OC  162 to 164 °C
1  COc1cccc([C@H]2O[C@H](CC(=O)N3CCC(CCc4nnn[nH]4)CC3)C(=O)N(CC(C)(C)C)c3ccc(Cl)cc32)c1OC  155 to 158 °C
2  COc1cccc([C@H]2O[C@H](CC(=O)NCC(O)CC(=O)O)C(=O)N(CC(C)(C)C)c3ccc(Cl)cc32)c1OC (stereo partly drawn)  122 to 124 °C

So what does the record say about melting point for COc1cccc([C@H]2O[C@H](CC(=O)N[C@@H](CC(C)C)C(=O)O)C(=O)N(CC(C)(C)C)c3ccc(Cl)cc32)c1OC ? 87 to 92 °C

So what does the record say about melting point for COc1cccc([C@H]2O[C@H](CC(=O)NS(C)(=O)=O)C(=O)N(CC(C)(C)COC(C)=O)c3ccc(Cl)cc32)c1OC ? 108 to 112 °C

So what does the record say about melting point for COc1cccc([C@H]2O[C@H](CC(=O)N3CCC(CC(=O)NS(C)(=O)=O)CC3)C(=O)N(CC(C)(C)CO)c3ccc(Cl)cc32)c1OC ? 175 to 180 °C

---

metric: melting point

Worked cases, answers included:
>>> df
                        structure_as_smiles         metric         result
0  COc1cccc([C@H]2O[C@H](CC(=O)N[C@@H](CCC(=O)O)C(=O)O)C(=O)N(CC(C)(C)C)c3ccc(Cl)cc32)c1OC  melting point  152 to 155 °C
1  COc1cccc([C@H]2O[C@H](CC(=O)NCCC(=O)O)C(=O)N(CC(C)(C)C)c3ccc(Cl)cc32)c1OC  melting point  165 to 167 °C
2  COc1cccc([C@H]2O[C@H](CC(=O)N[C@@H](Cc3ccccc3)C(=O)O)C(=O)N(CC(C)(C)C)c3ccc(Cl)cc32)c1OC  melting point  134 to 136 °C

So what does the record say about melting point for COc1cccc([C@H]2O[C@H](Cc3nnn[nH]3)C(=O)N(CC(C)(C)CO)c3ccc(Cl)cc32)c1OC ? 158 to 160 °C

So what does the record say about melting point for COc1cccc([C@H]2O[C@H](CC(=O)N(C)CC(=O)O)C(=O)N(CC(C)(C)C)c3ccc(Cl)cc32)c1OC ? 134 to 136 °C

So what does the record say about melting point for CCOP(=O)(CNC(=O)C[C@H]1O[C@H](c2cccc(OC)c2OC)c2cc(Cl)ccc2N(CC(C)(C)CO)C1=O)OCC ? 138 to 140 °C

So what does the record say about melting point for COc1cccc([C@H]2O[C@H](Cc3nc(=O)o[nH]3)C(=O)N(CC(C)(C)C)c3ccc(Cl)cc32)c1OC ? 130 to 133 °C

So what does the record say about melting point for COc1cccc([C@H]2O[C@H](CC(=O)N3CCC(CC(=O)O)CC3)C(=O)N(CC(C)(C)C)c3ccc(Cl)cc32)c1OC ? 137 to 140 °C

So what does the record say about melting point for COc1cccc([C@H]2O[C@H](CC(=O)N[C@@H](CC(=O)O)C(=O)O)C(=O)N(CC(C)(C)C)c3ccc(Cl)cc32)c1OC ? 145 to 150 °C

---

metric: melting point

Worked cases, answers included:
                                   molecule         result
0  COc1cccc([C@H]2O[C@H](CC(=O)N3CCC(CP(=O)(O)O)CC3)C(=O)N(CC(C)(C)C)c3ccc(Cl)cc32)c1OC  174 to 175 °C
1  COc1cccc([C@H]2O[C@H](CC(=O)NS(=O)(=O)c3ccccc3)C(=O)N(CC(C)(C)C)c3ccc(Cl)cc32)c1OC  158 to 161 °C
2  CCS(=O)(=O)NC(=O)C[C@H]1O[C@H](c2cccc(OC)c2OC)c2cc(Cl)ccc2N(CC(C)(C)C)C1=O  135 to 140 °C

So what does the record say about melting point for COc1cccc([C@H]2O[C@H](CC(=O)N3CCC(C(=O)NS(C)(=O)=O)CC3)C(=O)N(CC(C)(C)C)c3ccc(Cl)cc32)c1OC ? 187 to 189 °C

So what does the record say about melting point for CCC(C)[C@H](NC(=O)C[C@H]1O[C@H](c2cccc(OC)c2OC)c2cc(Cl)ccc2N(CC(C)(C)C)C1=O)C(=O)O (stereo partly drawn) ? 137 to 139 °C

So what does the record say about melting point for COc1cccc([C@H]2O[C@H](CC(=O)N3CCC(=CC(=O)O)CC3)C(=O)N(CC(C)(C)C)c3ccc(Cl)cc32)c1OC ? 228 to 230 °C

---

# experimental_target: squalene synthetase (Homo sapiens)
# Construct: This suspension was used as the enzyme solution; endogenous in cells; membrane fraction (105000×g sediment) of the sonicate
# assay_notes: Squalene synthetase inhibitory activity (human-derived enzyme prepared from HepG2 cells)
# study_conditions: [1-3H] farnesyl pyrophosphate, 37° C., 45 minutes, read-out: Inhibitory Activity (IC50, 10^−9 M)
Counter-ions that a name gives are not always drawn.
metric: IC50 (nM)

>>> df
                                   compound                 experimental_target  metric  recorded_number
0  COc1cccc([C@H]2O[C@H](CC(=O)N3CCC(C(=O)O)CC3)C(=O)N(CC(C)(C)CO)c3ccc(Cl)cc32)c1OC  squalene synthetase (Homo sapiens)    IC50               18
1  COc1cccc([C@H]2O[C@H](CC(=O)N[C@@H](CC(=O)O)C(=O)O)C(=O)N(CC(C)(C)C)c3ccc(Cl)cc32)c1OC  squalene synthetase (Homo sapiens)    IC50               11
2  COc1cccc([C@H]2O[C@H](CC(=O)N[C@@H](Cc3ccc(O)cc3)C(=O)O)C(=O)N(CC(C)(C)C)c3ccc(Cl)cc32)c1OC  squalene synthetase (Homo sapiens)    IC50               15

A: COc1cccc([C@H]2O[C@H](CC(=O)NCC(O)CC(=O)O)C(=O)N(CC(C)(C)C)c3ccc(Cl)cc32)c1OC (stereo partly shown)
B: COc1cccc([C@H]2O[C@H](CC(=O)NS(C)(=O)=O)C(=O)N(CC(C)(C)CO)c3ccc(Cl)cc32)c1OC
C: COc1cccc([C@H]2O[C@H](CC(=O)N3CCN(CC(=O)O)C(=O)C3)C(=O)N(CC(C)(C)C)c3ccc(Cl)cc32)c1OC
D: COc1cccc([C@H]2O[C@H](Cc3nnn[nH]3)C(=O)N(CC(C)(C)C)c3ccc(Cl)cc32)c1OC [Compound 9, sodium salt]
Exam item: list the entries in increasing order of IC50. Submit the labels in the order that the ranking request calls for. D, A, C, B

a: COc1cccc([C@H]2O[C@H](CC(=O)N3CCC(C(=O)NS(C)(=O)=O)CC3)C(=O)N(CC(C)(C)C)c3ccc(Cl)cc32)c1OC
b: COc1cccc([C@H]2O[C@H](CC(=O)N3CCC(CCc4nnn[nH]4)CC3)C(=O)N(CC(C)(C)C)c3ccc(Cl)cc32)c1OC
Determine, for a and b , which has the greater value of IC50. Write down the label attached to your selection. b

---

# Lookup of reported melting point keyed by entry

So what does the record say about melting point for COc1cccc([C@H]2O[C@H](Cc3nnn[nH]3)C(=O)N(CC(C)(C)C)c3ccc(Cl)cc32)c1OC [Compound 7] ? 148 to 150 °C

So what does the record say about melting point for COc1cccc([C@H]2O[C@H](CC(=O)N3CCC(Cc4nnn[nH]4)CC3)C(=O)N(CC(C)(C)C)c3ccc(Cl)cc32)c1OC [Compound 24] ? 168 to 170 °C

---

metric: melting point

So what does the record say about melting point for COc1cccc([C@H]2O[C@H](CC(=O)N3CCC(O)(C(=O)O)CC3)C(=O)N(CC(C)(C)C)c3ccc(Cl)cc32)c1OC ? 156 to 159 °C

So what does the record say about melting point for COc1cccc([C@H]2O[C@H](CC(=O)N[C@@H](Cc3ccc(O)cc3)C(=O)O)C(=O)N(CC(C)(C)C)c3ccc(Cl)cc32)c1OC ? 160 to 162 °C

So what does the record say about melting point for COc1cccc([C@H]2O[C@H](CC(=O)NS(=O)(=O)C(C)C)C(=O)N(CC(C)(C)C)c3ccc(Cl)cc32)c1OC ? 149 to 150 °C

---

# experimental_target: squalene synthetase (Homo sapiens, UniProt P37268)
# Construct: This suspension was used as the enzyme solution; endogenous in cells; membrane fraction (105000×g sediment) of the sonicate
# Sequence (P37268 whole entry): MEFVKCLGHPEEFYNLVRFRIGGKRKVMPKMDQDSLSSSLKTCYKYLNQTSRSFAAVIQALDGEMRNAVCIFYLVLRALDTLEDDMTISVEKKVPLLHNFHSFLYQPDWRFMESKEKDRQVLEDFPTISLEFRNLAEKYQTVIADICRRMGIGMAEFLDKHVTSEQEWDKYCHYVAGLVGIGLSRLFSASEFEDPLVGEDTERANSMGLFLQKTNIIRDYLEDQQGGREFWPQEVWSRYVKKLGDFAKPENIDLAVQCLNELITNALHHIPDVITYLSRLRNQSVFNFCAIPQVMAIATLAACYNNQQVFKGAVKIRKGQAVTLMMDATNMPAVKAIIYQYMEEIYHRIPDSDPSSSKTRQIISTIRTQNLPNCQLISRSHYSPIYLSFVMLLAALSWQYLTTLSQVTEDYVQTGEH
# assay_notes: Squalene synthetase inhibitory activity (human-derived enzyme prepared from HepG2 cells)
# study_conditions: [1-3H] farnesyl pyrophosphate, 37° C., 45 minutes, read-out: Inhibitory Activity (IC50, 10^−9 M)
# Procedure: The squalene synthetase inhibitory activity was assayed as follows with the enzyme solutions prepared in accordance with the method described below. […]
pIC50: −log10 of the molar value.
metric: pIC50

                                   molecule  recorded_number
0  COc1cccc([C@H]2O[C@H](CC(=O)N[C@@H](CC(C)C)C(=O)O)C(=O)N(CC(C)(C)C)c3ccc(Cl)cc32)c1OC             7.92
1  COc1cccc([C@H]2O[C@H](Cc3nnn[nH]3)C(=O)N(CC(C)(C)C)c3ccc(Cl)cc32)c1OC [Compound 7]             7.96
2  COc1cccc([C@H]2O[C@H](CC(=O)NS(=O)(=O)C(C)C)C(=O)N(CC(C)(C)C)c3ccc(Cl)cc32)c1OC             7.96
3  COc1cccc([C@H]2O[C@H](CC(=O)NS(=O)(=O)c3ccccc3C)C(=O)N(CC(C)(C)C)c3ccc(Cl)cc32)c1OC             7.89
